# protocol: refractive index (Na D-line) (dimensionless); mn = molality of the nth substance listed, in mol/kg
# condition-summary: 308.15 K; 101 kPa; Liquid; Standard Abbe refractometry; m1 = 0.3
± gives the expanded uncertainty stated by the source.
reported-endpoint: refractive index

Known results for molecules:
O=P(O)(O)O [phosphoric acid] + O :: 1.3339 ± 0.0004
O=P([O-])(O)O.[K+] [monopotassium phosphate] + O :: 1.3361 ± 0.0004

Shift focus to the following entry.
# get_value(readout='refractive index', item= O=P([O-])([O-])[O-].[K+].[K+].[K+] [tripotassium phosphate] + O ) 1.3426 ± 0.0004

---

Measured mass density, listed per entry for reference.
# protocol: mn = molality of the nth substance listed, in mol/kg
# condition-summary: 298.15 K; 101 kPa; Liquid; Vibrating tube method; m1 = 0.9
The reply should contain only the number, in kg/m3.

Known results for compounds:
O=P([O-])([O-])[O-].[Na+].[Na+].[Na+] [trisodium phosphate] + O :: 1173.67
O=P([O-])(O)O.[K+] [monopotassium phosphate] + O :: 1088.28
O=P([O-])([O-])O.[Na+].[Na+] [disodium hydrogen phosphate] + O :: 1129.62
O=P([O-])(O)O.[Na+] [sodium dihydrogen phosphate] + O :: 1081.28

Shift focus to the following entry.
# get_value(readout='mass density', item= O=P([O-])(O)O.[Li+] [lithium dihydrogen phosphate] + O ) 1064.91

---

Measured refractive index, listed per entry for reference.
# protocol: refractive index (Na D-line) (dimensionless); mn = molality of the nth substance listed, in mol/kg
# condition-summary: 298.15 K; 101 kPa; Liquid; Standard Abbe refractometry; m1 = 0.5
Enter a number only.

Known results for compounds:
O=P([O-])([O-])[O-].[Na+].[Na+].[Na+] [trisodium phosphate] + O :: 1.3515
O=P(O)(O)O [phosphoric acid] + O :: 1.3366

Shift focus to the following entry.
# get_value(readout='refractive index', item= O=P([O-])(O)O.[K+] [monopotassium phosphate] + O ) 1.3401

---

Measured speed of sound, listed per entry for reference.
# protocol: mn = molality of the nth substance listed, in mol/kg
# condition-summary: 308.15 K; 101 kPa; Liquid; Sing-around technique in a fixed-path interferometer; m1 = 0.5
The reply should contain only the number, in m/s.

O=P(O)(O)O [phosphoric acid] + O :: 1521.6
O=P([O-])([O-])[O-].[K+].[K+].[K+] [tripotassium phosphate] + O :: 1622.8
O=P([O-])([O-])O.[K+].[K+] [dipotassium hydrogen phosphate] + O :: 1593.3

Shift focus to the following entry.
# get_value(readout='speed of sound', item= O=P([O-])(O)O.[Li+] [lithium dihydrogen phosphate] + O ) 1564.5

---

Measured speed of sound, listed per entry for reference.
# protocol: mn = molality of the nth substance listed, in mol/kg
# condition-summary: 303.15 K; 101 kPa; Liquid; Sing-around technique in a fixed-path interferometer; m1 = 0.7
The reply should contain only the number, in m/s.

O=P([O-])([O-])O.[Na+].[Na+] [disodium hydrogen phosphate] + O :: 1630
O=P([O-])([O-])O.[K+].[K+] [dipotassium hydrogen phosphate] + O :: 1616.8
O=P([O-])(O)O.[K+] [monopotassium phosphate] + O :: 1570.1

# get_value(readout='speed of sound', item= O=P([O-])(O)O.[Na+] [sodium dihydrogen phosphate] + O ) 1577.8

# get_value(readout='speed of sound', item= O=P([O-])([O-])[O-].[Na+].[Na+].[Na+] [trisodium phosphate] + O ) 1667.3

# get_value(readout='speed of sound', item= O=P([O-])(O)O.[Li+] [lithium dihydrogen phosphate] + O ) 1573.7

# get_value(readout='speed of sound', item= O=P([O-])([O-])[O-].[K+].[K+].[K+] [tripotassium phosphate] + O ) 1666.7

# get_value(readout='speed of sound', item= O=P(O)(O)O [phosphoric acid] + O ) 1513.2

---

# protocol: mn = molality of the nth substance listed, in mol/kg
# condition-summary: 303.15 K; 101 kPa; Liquid; Vibrating tube method; m1 = 0.9
Numbers after ± are expanded uncertainties.
Measured mass density, listed per entry for reference.
Reply with the number and its unit after it.

Known results for compounds:
O=P([O-])(O)O.[Li+] [lithium dihydrogen phosphate] + O :: 1063.79 ± 0.12 kg/m3
O=P([O-])([O-])[O-].[K+].[K+].[K+] [tripotassium phosphate] + O :: 1191.62 ± 0.32 kg/m3
O=P(O)(O)O [phosphoric acid] + O :: 1039.05 ± 0.084 kg/m3
O=P([O-])(O)O.[K+] [monopotassium phosphate] + O :: 1087.42 ± 0.23 kg/m3

# get_value(readout='mass density', item= O=P([O-])([O-])[O-].[Na+].[Na+].[Na+] [trisodium phosphate] + O ) 1169.99 ± 0.26 kg/m3

---

# protocol: mn = molality of the nth substance listed, in mol/kg
# condition-summary: 298.15 K; 101 kPa; Liquid; Vibrating tube method; m1 = 0.5
Measured mass density, listed per entry for reference.
The reply should contain only the number, in kg/m3.

# get_value(readout='mass density', item= O=P([O-])(O)O.[Na+] [sodium dihydrogen phosphate] + O ) 1043.03

# get_value(readout='mass density', item= O=P([O-])([O-])[O-].[K+].[K+].[K+] [tripotassium phosphate] + O ) 1101.23

---

# protocol: refractive index (Na D-line) (dimensionless); mn = molality of the nth substance listed, in mol/kg
# condition-summary: 308.15 K; 101 kPa; Liquid; Standard Abbe refractometry; m1 = 0.3
reported-endpoint: refractive index
Enter a number only.

O=P([O-])(O)O.[Li+] [lithium dihydrogen phosphate] + O :: 1.3355

Shift focus to the following entry.
# get_value(readout='refractive index', item= O=P([O-])(O)O.[Na+] [sodium dihydrogen phosphate] + O ) 1.3371

---

# protocol: mn = molality of the nth substance listed, in mol/kg
# condition-summary: 298.15 K; 101 kPa; Liquid; Sing-around technique in a fixed-path interferometer; m1 = 0.9
Numbers after ± are expanded uncertainties.
reported-endpoint: speed of sound

Known results for molecules:
O=P(O)(O)O [phosphoric acid] + O :: 1504.2 ± 0.97 m/s
O=P([O-])(O)O.[K+] [monopotassium phosphate] + O :: 1577.6 ± 1.2 m/s

Shift focus to the following entry.
# get_value(readout='speed of sound', item= O=P([O-])([O-])[O-].[K+].[K+].[K+] [tripotassium phosphate] + O ) 1716.6 ± 1.2 m/s

---

# protocol: mn = molality of the nth substance listed, in mol/kg
# condition-summary: 308.15 K; 101 kPa; Liquid; Sing-around technique in a fixed-path interferometer; m1 = 0.3
Measured speed of sound, listed per entry for reference.
The reply should contain only the number, in m/s.

Known results for compounds:
O=P([O-])(O)O.[K+] [monopotassium phosphate] + O :: 1545.8
O=P(O)(O)O [phosphoric acid] + O :: 1520.4
O=P([O-])([O-])[O-].[K+].[K+].[K+] [tripotassium phosphate] + O :: 1578.9
O=P([O-])([O-])O.[K+].[K+] [dipotassium hydrogen phosphate] + O :: 1563.4
O=P([O-])([O-])O.[Na+].[Na+] [disodium hydrogen phosphate] + O :: 1569.8
O=P([O-])([O-])[O-].[Na+].[Na+].[Na+] [trisodium phosphate] + O :: 1583.5

# get_value(readout='speed of sound', item= O=P([O-])(O)O.[Li+] [lithium dihydrogen phosphate] + O ) 1546.5

# get_value(readout='speed of sound', item= O=P([O-])(O)O.[Na+] [sodium dihydrogen phosphate] + O ) 1548.1

---

# protocol: refractive index (Na D-line) (dimensionless); mn = molality of the nth substance listed, in mol/kg
# condition-summary: 303.15 K; 101 kPa; Liquid; Standard Abbe refractometry; m1 = 0.1
reported-endpoint: refractive index
Enter a number only.

Known results for molecules:
O=P([O-])([O-])O.[K+].[K+] [dipotassium hydrogen phosphate] + O :: 1.3346
O=P([O-])(O)O.[K+] [monopotassium phosphate] + O :: 1.3336
O=P([O-])([O-])[O-].[Na+].[Na+].[Na+] [trisodium phosphate] + O :: 1.3358
O=P(O)(O)O [phosphoric acid] + O :: 1.3329
O=P([O-])([O-])O.[Na+].[Na+] [disodium hydrogen phosphate] + O :: 1.3347

# get_value(readout='refractive index', item= O=P([O-])(O)O.[Li+] [lithium dihydrogen phosphate] + O ) 1.3332

# get_value(readout='refractive index', item= O=P([O-])(O)O.[Na+] [sodium dihydrogen phosphate] + O ) 1.334

# get_value(readout='refractive index', item= O=P([O-])([O-])[O-].[K+].[K+].[K+] [tripotassium phosphate] + O ) 1.3357
